Molecular target: T1, Bcat-Halo (UniProt P35222 1-781)
T1 sequence (looked up): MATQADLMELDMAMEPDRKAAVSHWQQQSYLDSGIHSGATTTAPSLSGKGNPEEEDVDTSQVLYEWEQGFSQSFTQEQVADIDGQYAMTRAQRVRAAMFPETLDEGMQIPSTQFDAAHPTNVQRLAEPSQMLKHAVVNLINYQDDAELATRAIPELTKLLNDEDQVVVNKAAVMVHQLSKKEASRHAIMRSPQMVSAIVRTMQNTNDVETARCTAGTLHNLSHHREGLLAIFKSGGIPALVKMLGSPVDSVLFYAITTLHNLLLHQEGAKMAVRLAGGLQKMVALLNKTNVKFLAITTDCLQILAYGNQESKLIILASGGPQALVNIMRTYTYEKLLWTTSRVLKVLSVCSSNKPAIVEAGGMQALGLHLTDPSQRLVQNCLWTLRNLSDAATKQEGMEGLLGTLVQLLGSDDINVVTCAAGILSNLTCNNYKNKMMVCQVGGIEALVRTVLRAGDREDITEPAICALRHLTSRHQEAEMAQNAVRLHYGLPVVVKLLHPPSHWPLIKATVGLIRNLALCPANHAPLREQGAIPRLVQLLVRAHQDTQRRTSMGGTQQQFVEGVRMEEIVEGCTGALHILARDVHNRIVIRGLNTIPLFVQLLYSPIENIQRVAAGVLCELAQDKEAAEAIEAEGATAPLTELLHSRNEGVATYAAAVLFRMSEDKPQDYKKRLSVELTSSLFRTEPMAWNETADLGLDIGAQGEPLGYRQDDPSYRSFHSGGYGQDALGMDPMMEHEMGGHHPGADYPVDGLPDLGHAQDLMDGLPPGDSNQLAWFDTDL
Assay: cell-based or functional assay
Starred links: 1 amine or outer side, 2 acyl side, 3 side chain; linkers in the order of their positions; H or OH if unused. Positions of bridges follow the written chain, without caps; N, C: chain ends. Non-standard residues stand in square brackets, D forms with d. Primed or numbered codes have the meaning given here. PyrS2″ = (S)-3-amino-1-((pent-4-en-1-yloxy)carbonyl)pyrrolidine-3-carboxylic acid (stapling residue), C=CCCCOC(=O)N1CC[C@@](N[*:1])(C(=O)[*:2])C1; B5(4) = 2,2-bis(4-pentenyl)glycine = 2-amino-2-(pent-4-en-1-yl)hept-6-enoic acid (stitching residue), C=CCCCC(CCCC=C)(N[*:1])C(=O)[*:2]; Phe(3-COOH) = N[C@@H](Cc1cccc(C(=O)O)c1)C(=O)O; 2F3MeF = Cc1cccc(C[C@H](N[*:1])C(=O)[*:2])c1F; Bta = N[C@@H](Cc1csc2ccccc12)C(=O)O; Lys(iPr) = CC(C)NCCCC[C@H](N)C(=O)O; hTyr = N[C@@H](CCc1ccc(O)cc1)C(=O)O; αAllylPro = C=CC[C@@]1(C(=O)O)CCCN1; tBuAla = CC(C)(C)C[C@H](N)C(=O)O; 3Thi = N[C@@H](Cc1ccsc1)C(=O)O; Cha = N[C@@H](CC1CCCCC1)C(=O)O; hSer = N[C@@H](CCO)C(=O)O
Overview of reported NanoBRET Abs IC50 across a group of binders:

Sample records with NanoBRET Abs IC50:
Binder	NanoBRET Abs IC50
Ac-[αAllylPro]D[tBuAla][B5(4)]DHAA[Phe(3-COOH)]N[PyrS2″][3Thi][Bta]Q-NH2 (staple 1-4, 4-11; also: earlier eluting HPLC isomer composition) [I-2118]	> 20 µM
Ac-[αAllylPro]D[tBuAla][B5(4)]D[Phe(3-COOH)]A[dA]FL[PyrS2″][2F3MeF][Bta]A-NH2 (staple 1-4, 4-11; also: earlier-eluting HPLC isomer composition) [I-2098]	> 20 µM
Ac-[αAllylPro]D[tBuAla][B5(4)]DWAA[Phe(3-COOH)]N[PyrS2″][3Thi][Bta]Q-NH2 (staple 1-4, 4-11) [I-2127]	40.8 µM
Ac-[αAllylPro]D[tBuAla][B5(4)]DYAA[Phe(3-COOH)][hSer][PyrS2″][3Thi][Bta]Q-NH2 (staple 1-4, 4-11; also: earlier eluting HPLC isomer composition) [I-2124]	38.9 µM
Ac-[αAllylPro]D[tBuAla][B5(4)]DWAA[Phe(3-COOH)]L[PyrS2″][3Thi][Bta]Q-NH2 (staple 1-4, 4-11) [I-2129]	44 µM

Which NanoBRET Abs IC50 is listed for Ac-[αAllylPro]N[Cha][B5(4)]DQ[Lys(iPr)]AFN[PyrS2″]F[Bta]H-NH2 (staple 1-4, 4-11) [I-2109] ?
> 20 µM

Given the binder Ac-[αAllylPro]N[Cha][B5(4)]DQ[Lys(iPr)]AF[Lys(iPr)][PyrS2″]F[Bta][hSer]-NH2 (staple 1-4, 4-11) [I-2102] , what is its reported NanoBRET Abs IC50?
> 20 µM

# get_value(readout='NanoBRET Abs IC50', item= Ac-[αAllylPro]D[tBuAla][B5(4)]D[hTyr]AA[Phe(3-COOH)]N[PyrS2″][3Thi][Bta]Q-NH2 (staple 1-4, 4-11; also: later eluting HPLC isomer composition) [I-2115] )
> 20 µM
